system: isolated strains from food production environments; assay type: cell-based; conditions: 74 strains; unheaded column beside Stdev (presumably mean)
For each of the compounds below, state its MIC.
Entry rule: numbers only, all in ul/ml.

Req: Give its MIC value. Item: O=C/C=C/c1ccccc1 [Trans-cinnaldeheyde]
Resp: 0.43

Req: Give its MIC value. Item: "C=CCc1ccc(O)c(OC)c1"
Resp: 0.86

Req: Give its MIC value. Item: "CC(C)=CCC/C(C)=C/CO"
Resp: 8.29

Req: Give its MIC value. Item: "CC1=CC[C@@H](C(C)(C)O)CC1"
Resp: 2.43
